Ki for Pepsin A (Sus scrofa, UniProt P00791), merged from several publications.
// boundary case: Ki equal to 30 nM maps to f; strictly smaller maps to t

>>> class_label("CC(C)CCC(=O)NC(=O)[C@@H](C)CC(O)[C@@H](CC(C)C)NC(=O)[C@H](NC(=O)CC(C)C)C(C)C (stereo partly specified)")
"t"
>>> class_label("CC(C)CCC(=O)NC(=O)[C@@H](C)NC(=O)CC(=O)[C@H](CC(C)C)NC(=O)[C@@H](NC(=O)CC(C)C)C(C)C")
"f"
>>> class_label("CC(C)CCC(=O)NC(=O)[C@@H](C)NC(=O)CC(O)[C@H](CC(C)C)NC(=O)[C@@H](NC(=O)CC(C)C)C(C)C (stereo partly specified)")
"t"
>>> class_label("CCC(C)C(=O)N[C@H](C(=O)N[C@@H](CC(C)C)[C@@H](O)CC(=O)N[C@@H](C)C(=O)NCCC(C)C)C(C)C (stereo partly specified)")
"t"
>>> class_label("CCCCC(NC(=O)[C@@H](NC(=O)[C@H](NC(=O)OCc1ccccc1)C(C)C)C(C)C)C(O)CC(=O)O (stereo partly specified)")
"f"
>>> class_label("CC(C)CCNC(=O)[C@H](C)NC(=O)C[C@H](O)[C@H](CC(C)C)NC(=O)[C@@H](NC(=O)OC(C)(C)C)C(C)C")
"f"
